Assay: Intrinsic cytotoxicity, EZ4U assay, HeLa
Settings: human, HeLa cells
REPORTED PROPERTY: CC50 at 72 h

The molecule listed as CC[C@@]1(O)C(=O)OCc2c1cc1n(c2=O)Cc2cc3c(CN(C)C)c(O)ccc3nc2-1 [Topotecan, reference compound] shows CC50 at 72 h equal to 0.9 µM

The molecule listed as C[C@H](CCC(=O)Nc1ccc(Br)cc1)[C@H]1CC[C@H]2[C@@H]3CC[C@@H]4C[C@H](OCc5ccccc5)CC[C@]4(C)[C@H]3CC(=O)[C@]12C shows CC50 at 72 h equal to > 100 µM

The molecule listed as C[C@H](CCC(=O)NCCc1c[nH]c2ccccc12)[C@H]1CC[C@H]2[C@@H]3CC[C@@H]4C[C@H](OCc5ccccc5)CC[C@]4(C)[C@H]3CC(=O)[C@]12C shows CC50 at 72 h equal to > 100 µM

---

Target: TDP1 (Homo sapiens, UniProt Q9NUW8)
Sequence (Q9NUW8 whole entry): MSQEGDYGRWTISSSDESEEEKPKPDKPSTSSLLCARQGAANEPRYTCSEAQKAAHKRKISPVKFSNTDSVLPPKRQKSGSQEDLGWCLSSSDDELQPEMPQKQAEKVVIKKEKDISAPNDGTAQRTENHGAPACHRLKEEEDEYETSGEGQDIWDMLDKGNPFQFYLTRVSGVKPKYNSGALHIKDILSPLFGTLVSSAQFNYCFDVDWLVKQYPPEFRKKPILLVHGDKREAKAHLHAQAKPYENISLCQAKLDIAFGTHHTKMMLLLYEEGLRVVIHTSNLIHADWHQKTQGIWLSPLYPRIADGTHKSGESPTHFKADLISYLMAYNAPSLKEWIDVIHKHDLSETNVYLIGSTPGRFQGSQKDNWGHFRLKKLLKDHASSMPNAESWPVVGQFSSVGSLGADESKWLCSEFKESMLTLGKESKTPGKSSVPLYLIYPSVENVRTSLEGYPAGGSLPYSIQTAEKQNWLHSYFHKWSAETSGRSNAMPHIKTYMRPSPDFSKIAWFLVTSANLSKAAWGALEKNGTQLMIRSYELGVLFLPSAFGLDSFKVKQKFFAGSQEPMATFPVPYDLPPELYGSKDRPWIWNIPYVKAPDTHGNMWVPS
Assay: Real-time fluorescence detection of TDP1 activity (FAM/BHQ1 oligonucleotide biosensor)
Format: biochemical
Conditions: concentration that inhibits the activity of the enzyme by 50%; read-out: TDP1 IC50
REPORTED PROPERTY: pIC50
Expect pIC50 as a plain number equal to -log10 of the molar concentration.

The molecule listed as C[C@H](CCC(=O)Nc1ccc(Br)cc1)[C@H]1CC[C@H]2[C@@H]3CC[C@@H]4C[C@H](OCc5ccccc5)CC[C@]4(C)[C@H]3CC(=O)[C@]12C shows pIC50 equal to 6.15

The molecule listed as C[C@H](CCc1nc(-c2ccc(Br)cc2)no1)[C@H]1CC[C@H]2[C@@H]3CC[C@@H]4C[C@H](OCc5ccccc5)CC[C@]4(C)[C@H]3C[C@H](OCc3ccccc3)[C@]12C shows pIC50 equal to 6.38

The molecule listed as C[C@H](CCC(=O)Nc1ccc(Br)cc1)[C@H]1CC[C@H]2[C@@H]3CC[C@@H]4C[C@H](OCc5ccccc5)CC[C@]4(C)[C@H]3C[C@H](O)[C@]12C shows pIC50 equal to 6.24

The molecule listed as C[C@H](CCC(=O)NCCc1c[nH]c2ccccc12)[C@H]1CC[C@H]2[C@@H]3CC[C@@H]4C[C@H](OCc5ccccc5)CC[C@]4(C)[C@H]3C[C@H](O)[C@]12C shows pIC50 equal to 6.62

---

Molecular target: recombinant human TDP2 (Homo sapiens)
Sequence (O95551 whole entry): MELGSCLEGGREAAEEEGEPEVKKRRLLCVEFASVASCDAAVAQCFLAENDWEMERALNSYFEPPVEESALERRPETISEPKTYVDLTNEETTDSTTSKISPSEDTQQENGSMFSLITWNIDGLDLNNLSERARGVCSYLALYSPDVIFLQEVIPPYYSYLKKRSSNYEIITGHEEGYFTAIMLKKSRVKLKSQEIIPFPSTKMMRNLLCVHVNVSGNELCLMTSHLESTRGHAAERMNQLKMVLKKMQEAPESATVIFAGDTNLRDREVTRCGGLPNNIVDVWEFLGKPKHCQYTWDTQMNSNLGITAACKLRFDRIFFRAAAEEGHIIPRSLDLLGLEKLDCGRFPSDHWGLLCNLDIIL
Assay: Gel-based TDP2 activity assay (removal of 5'-tyrosine from oligonucleotide, PAGE)
Assay type: biochemical
Conditions: inhibitor 1 mM; residual enzyme activity; read-out: TDP2 (Inhibitor Concentration 1 mM), residual activity of TDP2
REPORTED PROPERTY: remaining activity at 1000 µM (%)
Record the value in %, omitting the unit from your answer.

The molecule listed as C[C@H](CCC(=O)Nc1ccc(Br)cc1)[C@H]1CC[C@H]2[C@@H]3CC[C@@H]4C[C@H](OCc5ccccc5)CC[C@]4(C)[C@H]3C[C@H](O)[C@]12C shows remaining activity at 1000 µM equal to 47

The molecule listed as C[C@H](CCC(=O)NCCc1c[nH]c2ccccc12)[C@H]1CC[C@H]2[C@@H]3CC[C@@H]4C[C@H](OCc5ccccc5)CC[C@]4(C)[C@H]3CC(=O)[C@]12C shows remaining activity at 1000 µM equal to 45

The molecule listed as C[C@H](CCC(=O)NCCCc1cc(C(C)(C)C)c(O)c(C(C)(C)C)c1)[C@H]1CC[C@H]2[C@@H]3CC[C@@H]4C[C@H](OCc5ccccc5)CC[C@]4(C)[C@H]3C[C@H](OCc3ccccc3)[C@]12C shows remaining activity at 1000 µM equal to 45

The molecule listed as C[C@H](CCC(=O)NCCc1c[nH]c2ccccc12)[C@H]1CC[C@H]2[C@@H]3CC[C@@H]4C[C@H](OCc5ccccc5)CC[C@]4(C)[C@H]3C[C@H](OCc3ccccc3)[C@]12C shows remaining activity at 1000 µM equal to 35
